Molecular target: human recombinant KOR (Homo sapiens, UniProt P41145)
Construct: expressed in transfected cells; host or cells: CHO cells (gift from Prof. Girolamo Calo', Ferrara University)
Sequence (P41145 whole entry): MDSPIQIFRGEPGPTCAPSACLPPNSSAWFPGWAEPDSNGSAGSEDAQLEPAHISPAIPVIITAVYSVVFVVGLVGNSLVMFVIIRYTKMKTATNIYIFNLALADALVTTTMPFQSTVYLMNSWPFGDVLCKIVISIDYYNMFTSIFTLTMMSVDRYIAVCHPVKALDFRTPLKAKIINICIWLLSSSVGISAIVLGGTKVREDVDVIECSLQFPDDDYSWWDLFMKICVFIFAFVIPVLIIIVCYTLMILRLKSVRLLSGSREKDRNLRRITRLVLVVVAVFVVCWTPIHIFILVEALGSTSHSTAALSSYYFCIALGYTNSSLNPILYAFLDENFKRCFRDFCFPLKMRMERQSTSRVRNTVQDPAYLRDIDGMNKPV
Test: Calcium mobilization assay, CHO KOR cells with Gαqi5
Type: cell-based
Conditions: intrinsic activity: Emax of ligand / Emax of dynorphin A
Numbered stars: 1 amine (or outer) side, 2 acyl side, 3 side chain; on linkers, the order of the positions; unused ones are H or OH. Square brackets hold non-standard residues; d marks the D form. Peptide text beside a SMILES is read from it. * marks the point of attachment. X3 = O=C(c1c(OCCN[*:1])c(-c2ccccc2)nc2ccccc12)[*:2]; NH(1S-phenylpropyl) = CC[C@H](N*)c1ccccc1; Dmt = Cc1cc(O)cc(C)c1C[C@H](N)C(=O)O
measurement-kind: KOR α ± SEM

Ask: I'm curious: which KOR α ± SEM was measured for CC[C@H](NC(=O)c1c(OCCNC(=O)CCN2Cc3ccccc3C[C@H](NC(=O)[C@@H](CCCNC(=N)N)NC(=O)[C@@H](N)Cc3c(C)cc(O)cc3C)C2=O)c(-c2ccccc2)nc2ccccc12)c1ccccc1 tested on human recombinant KOR (Homo sapiens, UniProt P41145)?
Result: crc incomplete

Ask: Item: CC[C@H](NC(=O)c1c(OCCNC(=O)[C@H](CCCCN)NC(=O)[C@H](Cc2ccccc2)NC(=O)[C@@H](CCCNC(=N)N)NC(=O)[C@@H](N)Cc2c(C)cc(O)cc2C)c(-c2ccccc2)nc2ccccc12)c1ccccc1 [SBL-OPNK-8] (H-[Dmt][dR]FK[X3]-{NH(1S-phenylpropyl)})
Result: crc incomplete

---

Target: human recombinant DOR (Homo sapiens, UniProt P41143)
Construct: expressed in transfected cells; host or cells: CHO cells (gift from Prof. Girolamo Calo', Ferrara University)
Sequence (P41143 whole entry): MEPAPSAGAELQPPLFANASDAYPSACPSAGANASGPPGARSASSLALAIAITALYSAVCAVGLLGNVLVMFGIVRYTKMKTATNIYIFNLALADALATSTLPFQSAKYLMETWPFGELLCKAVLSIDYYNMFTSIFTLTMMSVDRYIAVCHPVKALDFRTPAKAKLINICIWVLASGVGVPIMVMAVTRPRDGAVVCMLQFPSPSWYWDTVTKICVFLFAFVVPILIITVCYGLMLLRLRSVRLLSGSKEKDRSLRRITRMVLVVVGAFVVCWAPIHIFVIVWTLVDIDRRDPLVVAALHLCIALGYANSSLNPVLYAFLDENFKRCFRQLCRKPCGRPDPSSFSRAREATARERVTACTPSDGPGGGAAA
Assay: Calcium mobilization assay, CHO DOR cells with GαqG66Di5
Type: cell-based
Settings: intrinsic activity: Emax of ligand / Emax of DPDPE
Numbered stars: 1 amine (or outer) side, 2 acyl side, 3 side chain; on linkers, the order of the positions; unused ones are H or OH. Square brackets hold non-standard residues; d marks the D form. Peptide text beside a SMILES is read from it. * marks the point of attachment. X3 = O=C(c1c(OCCN[*:1])c(-c2ccccc2)nc2ccccc12)[*:2]; X1 = O=C1[C@@H](N[*:1])Cc2ccccc2CN1CCC(=O)[*:2]; NH(1S-phenylpropyl) = CC[C@H](N*)c1ccccc1; Dmt = Cc1cc(O)cc(C)c1C[C@H](N)C(=O)O
measurement-kind: DOR α ± SEM

Ask: For human recombinant DOR (Homo sapiens, UniProt P41143), provide DOR α ± SEM of CC[C@H](NC(=O)c1c(OCCNC(=O)[C@H](CCCCN)NC(=O)[C@H](Cc2ccccc2)NC(=O)[C@@H](CCCNC(=N)N)NC(=O)[C@@H](N)Cc2c(C)cc(O)cc2C)c(-c2ccccc2)nc2ccccc12)c1ccccc1 [SBL-OPNK-8] (H-[Dmt][dR]FK[X3]-{NH(1S-phenylpropyl)}) please.
Result: inactive

Ask: Now try Cc1cc(O)cc(C)c1C[C@H](N)C(=O)N[C@H](CCCNC(=N)N)C(=O)N[C@H]1Cc2ccccc2CN(CCC(=O)N[C@@H](CC(=O)O)C(=O)N[C@@H](Cc2ccc(O)cc2)C(=O)N[C@H](Cc2c[nH]c3ccccc23)C(=O)N[C@H](C(=O)N[C@H](Cc2c[nH]c3ccccc23)C(=O)N[C@H](Cc2c[nH]c3ccccc23)C(=O)N[C@@H](CCCCN)C(N)=O)C(C)C)C1=O [SBL-OPNK-5] (H-[Dmt][dR][X1]DY[dW]V[dW][dW]K-NH2) .
Result: 1.01 ± 0.03

Ask: Check Cc1cc(O)cc(C)c1C[C@H](N)C(=O)N[C@H](CCCNC(=N)N)C(=O)N[C@@H](Cc1ccccc1)C(=O)N[C@@H](CCCCN)C(=O)N[C@@H](CC(=O)O)C(=O)N[C@@H](Cc1ccc(O)cc1)C(=O)N[C@H](Cc1c[nH]c2ccccc12)C(=O)N[C@H](C(=O)N[C@H](Cc1c[nH]c2ccccc12)C(=O)N[C@H](Cc1c[nH]c2ccccc12)C(=O)N[C@@H](CCCCN)C(N)=O)C(C)C [SBL-OPNK-4] (H-[Dmt][dR]FKDY[dW]V[dW][dW]K-NH2) too.
Result: inactive

---

Recorded measurements of pKi, one per entry
Target: human recombinant KOR (Homo sapiens, UniProt P41145)
Construct: expressed in transfected cells; host or cells: CHO cells (gift from Prof. Girolamo Calo', Ferrara University)
Assay: Opioid receptor radioligand binding assay, KOR
Numbered stars: 1 amine (or outer) side, 2 acyl side, 3 side chain; on linkers, the order of the positions; unused ones are H or OH. Square brackets hold non-standard residues; d marks the D form. Peptide text beside a SMILES is read from it. * marks the point of attachment. X3 = O=C(c1c(OCCN[*:1])c(-c2ccccc2)nc2ccccc12)[*:2]; NH(1S-phenylpropyl) = CC[C@H](N*)c1ccccc1; Dmt = Cc1cc(O)cc(C)c1C[C@H](N)C(=O)O
pKi (log units): -log10 of the concentration in mol/L.

Past entries and their recorded results:
Ask: // returns reported pKi for input Cc1cc(O)cc(C)c1C[C@H](N)C(=O)N[C@H](CCCNC(=N)N)C(=O)N[C@@H](Cc1ccccc1)C(=O)N[C@@H](CCCCN)C(=O)N[C@@H](CC(=O)O)C(=O)N[C@@H](Cc1ccc(O)cc1)C(=O)N[C@H](Cc1c[nH]c2ccccc12)C(=O)N[C@H](C(=O)N[C@H](Cc1c[nH]c2ccccc12)C(=O)N[C@H](Cc1c[nH]c2ccccc12)C(=O)N[C@@H](CCCCN)C(N)=O)C(C)C [SBL-OPNK-4] (H-[Dmt][dR]FKDY[dW]V[dW][dW]K-NH2)
Result: 7.04

Ask: Next record, please: CC[C@H](NC(=O)c1c(OCCNC(=O)[C@H](CCCCN)NC(=O)[C@H](Cc2ccccc2)NC(=O)[C@@H](CCCNC(=N)N)NC(=O)[C@@H](N)Cc2c(C)cc(O)cc2C)c(-c2ccccc2)nc2ccccc12)c1ccccc1 [SBL-OPNK-8] (H-[Dmt][dR]FK[X3]-{NH(1S-phenylpropyl)})
Result: 6.98

From here, focus on the item given below.
Ask: Quick one: pKi of CC[C@H](NC(=O)c1c(OCCNC(=O)CCN2Cc3ccccc3C[C@H](NC(=O)[C@@H](CCCNC(=N)N)NC(=O)[C@@H](N)Cc3c(C)cc(O)cc3C)C2=O)c(-c2ccccc2)nc2ccccc12)c1ccccc1 ?
Result: 7.01

---

Target: human recombinant KOR (Homo sapiens)
Construct: expressed in transfected cells; host or cells: CHO cells (gift from Prof. Girolamo Calo', Ferrara University)
Assay: Calcium mobilization assay, CHO KOR cells with Gαqi5
Assay type: cell-based
Settings: intrinsic activity: Emax of ligand / Emax of dynorphin A
Numbered stars: 1 amine (or outer) side, 2 acyl side, 3 side chain; on linkers, the order of the positions; unused ones are H or OH. Square brackets hold non-standard residues; d marks the D form. Peptide text beside a SMILES is read from it. X1 = O=C1[C@@H](N[*:1])Cc2ccccc2CN1CCC(=O)[*:2]; Dmt = Cc1cc(O)cc(C)c1C[C@H](N)C(=O)O
measurement-kind: KOR α ± SEM

Ask: Could you share what KOR α ± SEM was measured for CC1(C)SSC(C)(C)[C@@H](NC(=O)[C@@H](N)Cc2ccc(O)cc2)C(=O)NCC(=O)N[C@@H](Cc2ccccc2)C(=O)N[C@H]1C(=O)O [DPDPE, reference compound] , tested on human recombinant KOR (Homo sapiens)?
Result: inactive

Ask: Check C[C@@H](NC(=O)[C@@H](N)Cc1ccc(O)cc1)C(=O)N[C@@H](Cc1ccccc1)C(=O)NCC(=O)N[C@@H](Cc1ccc(O)cc1)C(=O)N1CCC[C@H]1C(=O)N[C@@H](CO)C(N)=O [dermorphin, reference compound] too.
Result: inactive

Ask: And Cc1cc(O)cc(C)c1C[C@H](N)C(=O)N[C@H](CCCNC(=N)N)C(=O)N[C@H]1Cc2ccccc2CN(CCC(=O)N[C@@H](CC(=O)O)C(=O)N[C@@H](Cc2ccc(O)cc2)C(=O)N[C@H](Cc2c[nH]c3ccccc23)C(=O)N[C@H](C(=O)N[C@H](Cc2c[nH]c3ccccc23)C(=O)N[C@H](Cc2c[nH]c3ccccc23)C(=O)N[C@@H](CCCCN)C(N)=O)C(C)C)C1=O [SBL-OPNK-5] (H-[Dmt][dR][X1]DY[dW]V[dW][dW]K-NH2) ?
Result: 0.44 ± 0.06

---

Target: human recombinant KOR (Homo sapiens, UniProt P41145)
Construct: expressed in transfected cells; host or cells: CHO cells (gift from Prof. Girolamo Calo', Ferrara University)
Assay: Opioid receptor radioligand binding assay, KOR
Numbered stars: 1 amine (or outer) side, 2 acyl side, 3 side chain; on linkers, the order of the positions; unused ones are H or OH. Square brackets hold non-standard residues; d marks the D form. Peptide text beside a SMILES is read from it. * marks the point of attachment. X1 = O=C1[C@@H](N[*:1])Cc2ccccc2CN1CCC(=O)[*:2]; Dmt = Cc1cc(O)cc(C)c1C[C@H](N)C(=O)O; 4Amb = NCc1ccc(C(=O)O)cc1; Ac5c = NC1(C(=O)O)CCCC1; X2 = C(CN*)CN1CCOCC1
measurement-kind: pKi
// pKi here means minus log10 of the molar concentration (mol/L)

Some compounds with recorded pKi:
Ask: So what's the measured pKi for this one? Cc1cc(O)cc(C)c1C[C@H](N)C(=O)N[C@H](CCCNC(=N)N)C(=O)N[C@@H](Cc1ccccc1)C(=O)N[C@@H](CCCCN)C(=O)NCc1ccc(C(=O)NC2(C(=O)N[C@H](Cc3ccccc3)C(=O)NCCCN3CCOCC3)CCCC2)cc1 [SBL-OPNK-6] (H-[Dmt][dR]FK[4Amb][Ac5c][dF]-X2)
Result: 7.00

Ask: Now the same for Cc1cc(O)cc(C)c1C[C@H](N)C(=O)N[C@H](CCCNC(=N)N)C(=O)N[C@H]1Cc2ccccc2CN(CCC(=O)N[C@@H](CC(=O)O)C(=O)N[C@@H](Cc2ccc(O)cc2)C(=O)N[C@H](Cc2c[nH]c3ccccc23)C(=O)N[C@H](C(=O)N[C@H](Cc2c[nH]c3ccccc23)C(=O)N[C@H](Cc2c[nH]c3ccccc23)C(=O)N[C@@H](CCCCN)C(N)=O)C(C)C)C1=O [SBL-OPNK-5] (H-[Dmt][dR][X1]DY[dW]V[dW][dW]K-NH2)
Result: 7.04

Kindly consider the entry below.
Ask: Reported pKi for Cc1cc(O)cc(C)c1C[C@H](N)C(=O)N[C@H](CCCNC(=N)N)C(=O)N[C@H]1Cc2ccccc2CN(CCC(N)=O)C1=O [KGOP01, H-Dmt-D-Arg-Aba-βAla-NH2, reference compound] : what is it?
Result: 7.14
